- Method Summary: The drug is tested on WLS-073 corresponding to human gut metagenome with ENA study accession number: PRJEB37062 and ENA sample accession number: ERS12561749 for biotransformation under anaerobic condition. The drug concentrations were measured over 9 timepoints collected between 0 and 24 hours of incubation by liquid-chromatography-coupled mass spectrometry (LC–MS); also: call rule not given here
- Protocol Conditions: 2 µM
Property: Bacterial Biotransformation

Below are worked cases with known answers.
INSERT INTO assay_data (compound, value_reported) VALUES
  ('CN(C)CCC=C1c2ccccc2C=Cc2ccccc21 [CYCLOBENZAPRINE]', 'Compound metabolized'),
  ('N#Cc1ccc(C(c2ccc(C#N)cc2)n2cncn2)cc1 [LETROZOLE]', 'Compound NOT metabolized'),
  ('OCCOCCN1CCN(C2=Nc3ccccc3Sc3ccccc32)CC1 [QUETIAPINE]', 'Compound NOT metabolized'),
  ('Fc1ccc([C@@H]2CCNC[C@H]2COc2ccc3c(c2)OCO3)cc1 [PAROXETINE]', 'Compound NOT metabolized'),
  ('COC(=O)[C@H]1[C@H]2C[C@@H]3c4[nH]c5cc(OC)ccc5c4CCN3C[C@H]2C[C@@H](OC(=O)c2cc(OC)c(OC)c(OC)c2)[C@@H]1OC [RESERPINE]', 'Compound NOT metabolized'),
  ('CN1CCN(C2=Nc3cc(Cl)ccc3Nc3ccccc32)CC1 [CLOZAPINE]', 'Compound NOT metabolized'),
  ('CN(C)C(=O)C(CCN1CCC(O)(c2ccc(Cl)cc2)CC1)(c1ccccc1)c1ccccc1 [LOPERAMIDE]', 'Compound NOT metabolized'),
  ('COCCc1ccc(OCC(O)CNC(C)C)cc1.COCCc1ccc(OCC(O)CNC(C)C)cc1.O=C(O)C(O)C(O)C(=O)O (centres undefined) [METOPROLOL TARTRATE]', 'Compound NOT metabolized'),
  ('CN1CCC(=C2c3ccccc3CCc3cccnc32)CC1.O=C(O)/C=C\C(=O)O.O=C(O)/C=C\C(=O)O [AZATADINE MALEATE]', 'Compound NOT metabolized'),
  ('C=CCc1ccccc1OCC(O)CNC(C)C (centres undefined) [ALPRENOLOL]', 'Compound NOT metabolized');

Prompt: Reported Bacterial Biotransformation for CCCc1nc(C(C)(C)O)c(C(=O)OCc2oc(=O)oc2C)n1Cc1ccc(-c2ccccc2-c2nnn[nH]2)cc1 [OLMESARTAN MEDOXOMIL] : what is it?
Completion: Compound metabolized

Prompt: Entry to check: COc1cc2c(c(OC)c1OC)-c1ccc(OC)c(=O)cc1[C@@H](NC(C)=O)CC2 [COLCHICINE]
Completion: Compound metabolized

Prompt: Now the same for CCC1(c2ccc(N)cc2)CCC(=O)NC1=O (centres undefined) [AMINOGLUTETHIMIDE]
Completion: Compound NOT metabolized
